biological target: UniProt O89049; test: biochemical
assayMetric: pIC50
Interpret pIC50 as the negative base-10 log of the concentration measured in mol/L.

// lookup pIC50 for `O=NN(CCCl)C(=O)NCCCl` 5.12

----------
The molecules listed here are annotated with their IC50.
target: thioredoxin reductase 1 (TrxR) (Rattus norvegicus, UniProt O89049); assay: DTNB reduction assay
Sequence (O89049 whole entry): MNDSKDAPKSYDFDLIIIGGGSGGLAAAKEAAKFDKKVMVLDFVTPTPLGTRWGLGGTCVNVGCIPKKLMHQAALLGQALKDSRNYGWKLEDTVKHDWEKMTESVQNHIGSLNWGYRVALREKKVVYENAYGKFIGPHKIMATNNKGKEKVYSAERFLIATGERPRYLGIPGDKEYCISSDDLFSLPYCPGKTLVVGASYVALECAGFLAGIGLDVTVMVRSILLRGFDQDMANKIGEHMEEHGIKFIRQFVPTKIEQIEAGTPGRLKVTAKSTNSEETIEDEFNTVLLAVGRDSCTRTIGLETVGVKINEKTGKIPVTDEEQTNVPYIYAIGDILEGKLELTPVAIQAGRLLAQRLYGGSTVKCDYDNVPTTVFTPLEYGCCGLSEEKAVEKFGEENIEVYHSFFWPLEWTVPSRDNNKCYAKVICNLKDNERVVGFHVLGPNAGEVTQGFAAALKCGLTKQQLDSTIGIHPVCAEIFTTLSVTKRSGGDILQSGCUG
// note: answer is a bare numeric in µM

Which IC50 is listed for CNC(=O)N(NS(C)(=O)=O)S(C)(=O)=O [101MDCE] ? 5.37

Next item in the queue.
Reported IC50, molecule CNC(=O)N(N(CCCl)S(C)(=O)=O)S(C)(=O)=O [Laromustine] : ____ 4.65
